These entries and their values trace back to PubChem BioAssay (NCI).

System: NCI/ADR-RES ovarian
assayRemarks: NCI tumour cell line growth inhibition, 48 h
valueKind: TGI

{"molecule": "CCCCCCC1CCCCN1C(c1ccccc1)C(O)c1ccccc1 (stereo unspecified)", "valueKind": "TGI", "experimentalValue": "22.9 µM"}
{"molecule": "CN(C)c1ccc(/C=C2\\N=C(c3ccccc3)N(c3nc4ccc(Sc5ccccc5)cc4[nH]3)C2=O)cc1", "valueKind": "TGI", "experimentalValue": "85.3 µM"}
{"molecule": "O=C(CN1CCCC1)Nc1ccc2c(c1)C1Oc3ccccc3CC1CO2 (stereo unspecified)", "valueKind": "TGI", "experimentalValue": "> 100 µM"}
{"molecule": "CCOC(=O)CC1C(C(=O)OCC)=Cn2c([nH]c3cccc4cccc2c43)=C1C(=O)OCC (stereo unspecified)", "valueKind": "TGI", "experimentalValue": "> 100 µM"}
{"molecule": "Nc1ncnc2c1ncn2CCCNO", "valueKind": "TGI", "experimentalValue": "> 100 µM"}
{"molecule": "CC(C)(C)c1cnc(CSc2cnc(NC(=O)C3CCNCC3)s2)o1", "valueKind": "TGI", "experimentalValue": "> 100 µM"}
{"molecule": "c1ccc(CN2CCC(CNc3ncnc4ccccc34)C2)cc1 (stereo unspecified)", "valueKind": "TGI", "experimentalValue": "> 100 µM"}
{"molecule": "CN(CC(=O)O)c1ncc2c(n1)-c1ccccc1CC2", "valueKind": "TGI", "experimentalValue": "> 100 µM"}
{"molecule": "N#CC(C#N)=C/C=C/c1ccccc1[N+](=O)[O-]", "valueKind": "TGI", "experimentalValue": "4.84 µM"}
{"molecule": "CC(C)(C)OC(=O)CC(S(=O)(=O)c1ccccc1)S(=O)(=O)c1ccccc1", "valueKind": "TGI", "experimentalValue": "37.8 µM"}
{"molecule": "CCOc1ccc(Nc2nc(N)nc(N)c2N=O)cc1", "valueKind": "TGI", "experimentalValue": "> 100 µM"}

###

System: SNB-19 CNS
assayRemarks: NCI tumour cell line growth inhibition, 48 h

{"molecule": "COc1ccc(C2C(C(=O)O)=C(COC(C)=O)Oc3cc4c(cc32)OCO4)c(OC)c1 (stereo not given)", "targetUnderTest": "SNB-19 CNS", "TGI": "> 100 µM"}
{"molecule": "CC(C)(C)C(=O)C(N)C(=O)C(C)(C)C", "targetUnderTest": "SNB-19 CNS", "TGI": "> 100 µM"}
{"molecule": "CCCCCCCCCCCCCCCCOC[C@H](COC(c1ccccc1)(c1ccccc1)c1ccccc1)O[P+](=S)OC (stereo not given in full)", "targetUnderTest": "SNB-19 CNS", "TGI": "> 100 µM"}
{"molecule": "O=c1c2ccccc2n2nnc3ccc(NCCNCCO)c1c32", "targetUnderTest": "SNB-19 CNS", "TGI": "17.7 µM"}
{"molecule": "COc1cc(CNc2nc3c(NC(C)=O)cc(C(F)(F)F)cc3nc2-c2ccccc2)cc(OC)c1OC", "targetUnderTest": "SNB-19 CNS", "TGI": "> 100 µM"}

###

Test system: RXF 393 renal
assayRemarks: NCI tumour cell line growth inhibition, 48 h
Label true (1) when TGI is at or above 9 µM; anything below gets false (0).

{"compound": "CC(C)NC(=O)OCCN=C1c2ccccc2C(Br)C(Br)c2ccccc21 (stereo unspecified)", "targetUnderTest": "RXF 393 renal", "groupLabel": "false (0)"}
{"compound": "CCCC/C=C1/CCC(CN(C)C)C1=O (stereo unspecified)", "targetUnderTest": "RXF 393 renal", "groupLabel": "false (0)"}
{"compound": "CN(C)c1ccc(/C=C2\\N=C(c3ccccc3)N(c3nc4ccc(Sc5ccccc5)cc4[nH]3)C2=O)cc1", "targetUnderTest": "RXF 393 renal", "groupLabel": "true (1)"}
{"compound": "O=C(N[C@H]1CC2(C=C(I)C(=O)C(I)=C2)OC1=O)OCc1ccccc1", "targetUnderTest": "RXF 393 renal", "groupLabel": "true (1)"}
{"compound": "O=C(c1ccccc1)C1C(c2ccccc2[N+](=O)[O-])N1C1CCCCC1 (stereo unspecified)", "targetUnderTest": "RXF 393 renal", "groupLabel": "true (1)"}
{"compound": "COc1cc(OC)c(OC)cc1/C=C\\c1ccnc2ccccc12", "targetUnderTest": "RXF 393 renal", "groupLabel": "false (0)"}
{"compound": "O=C(Nc1c(Cl)cc([N+](=O)[O-])cc1Cl)C(=O)C(C(=O)c1ccncc1)C1OC(=O)c2ccccc21 (stereo unspecified)", "targetUnderTest": "RXF 393 renal", "groupLabel": "true (1)"}
{"compound": "CCOC(=O)CSc1nc(-c2ccc(Cl)cc2)c(C#N)c(=O)[nH]1", "targetUnderTest": "RXF 393 renal", "groupLabel": "true (1)"}
{"compound": "COC(=O)c1c2c(cc3c1CC1(Cc4cc5c(cc4C1)CCCC5)C3)CCCC2", "targetUnderTest": "RXF 393 renal", "groupLabel": "true (1)"}
{"compound": "CC(C)(C)C(=O)C(N)C(=O)C(C)(C)C", "targetUnderTest": "RXF 393 renal", "groupLabel": "true (1)"}
{"compound": "CC1(C)O[C@@H](CCl)C[C@@H](C#N)O1", "targetUnderTest": "RXF 393 renal", "groupLabel": "true (1)"}
{"compound": "CN(C)CC(=O)N1CCc2c([nH]c3ccccc23)C1c1cccnc1 (stereo unspecified)", "targetUnderTest": "RXF 393 renal", "groupLabel": "true (1)"}
{"compound": "Cc1ccccc1NC(=O)C(=O)CC(=O)c1sc(-n2nc(-c3ccccc3)cc2-c2ccccc2)nc1C", "targetUnderTest": "RXF 393 renal", "groupLabel": "true (1)"}
{"compound": "CNC(=O)N(CCCCC(NC(C)=O)C(=O)NCc1ccccc1)Cc1ccccc1 (stereo unspecified)", "targetUnderTest": "RXF 393 renal", "groupLabel": "true (1)"}
{"compound": "CCOC(=O)C(NC(=O)c1ccccc1)(Nc1ccc(S(=O)(=O)Nc2cc(C)on2)cc1)C(F)(F)F (stereo unspecified)", "targetUnderTest": "RXF 393 renal", "groupLabel": "true (1)"}
{"compound": "COC(=O)c1sc(=S)c2sc(C(=O)OC)c(C(=O)OC)c2c1C(=O)OC", "targetUnderTest": "RXF 393 renal", "groupLabel": "true (1)"}
{"compound": "Cn1cc(C2=C(c3cccc([N+](=O)[O-])c3)C(=O)NC2=O)c2ccccc21", "targetUnderTest": "RXF 393 renal", "groupLabel": "true (1)"}
{"compound": "Cc1cc(C)n(C(C)(C(=O)Cc2ccccc2)n2nc(C)cc2C)n1", "targetUnderTest": "RXF 393 renal", "groupLabel": "true (1)"}
{"compound": "CN(CC(=O)O)c1ncc2c(n1)-c1ccccc1CC2", "targetUnderTest": "RXF 393 renal", "groupLabel": "true (1)"}
{"compound": "CC(CSc1nc2c(c(=N)n1-c1ccccc1)c(=S)n(-c1ccccc1)c(=S)n2-c1ccccc1)CN(C)C (stereo unspecified)", "targetUnderTest": "RXF 393 renal", "groupLabel": "false (0)"}
{"compound": "COc1cc2c(cc1OC)C(Sc1ccc(Cl)cc1)c1c(nc(N)c(C#N)c1N)O2 (stereo unspecified)", "targetUnderTest": "RXF 393 renal", "groupLabel": "false (0)"}

###

System: SF-268 CNS
assayRemarks: NCI tumour cell line growth inhibition, 48 h; in the data active = GI50 below about 0.43 µM; inactive = the rest
Outcomes: active, inactive

{"molecule": "COc1cc(C(=O)Nc2ccc(-c3nc4ccccc4[nH]3)cc2)cc(OC)c1OC", "groupLabel": "inactive"}
{"molecule": "COc1ccc(C2CC(c3cccc(Nc4ccncc4)c3)=NN2c2ccccc2)cc1 (stereo unspecified)", "groupLabel": "inactive"}
{"molecule": "COc1ccccc1CNCCCN1C(=O)c2ccc3c4c(ccc(c24)C1=O)C(=O)N(CCCNCCCCN)C3=O", "groupLabel": "active"}
{"molecule": "OCCN1CCCN(CCCN2c3ccccc3Sc3ccc(C(F)(F)F)cc32)CC1", "groupLabel": "inactive"}
{"molecule": "NCC[PH+](c1ccccc1)c1ccccc1.NCC[PH+](c1ccccc1)c1ccccc1.[Cl-].[Pt+4]", "groupLabel": "inactive"}
{"molecule": "Cc1nc2sc(C(=O)Nc3cccc(Cl)c3)c(N)c2cc1C(O)c1ccccc1 (stereo unspecified)", "groupLabel": "inactive"}

###

Test system: UACC-257 melanoma
assayRemarks: NCI tumour cell line growth inhibition, 48 h
Catalogue of TGI values

{"compound": "O=c1c2ccccc2n2nnc3ccc(NCCNCCO)c1c32", "TGI": "12.3 µM"}
{"compound": "C#CCN(CCCOc1ccc(Cl)cc1Cl)CCCSC(=O)CCCCCN1/C(=C\\C=C2/CCCC(/C=C/C3=[N+](CCCCCC(=O)[O-])c4ccccc4C3(C)C)=C2Cl)C(C)(C)c2ccccc21", "TGI": "4.03 µM"}
{"compound": "O=C(O)C1C2OC(C(Br)C2Br)C1C(=O)O (stereo not drawn)", "TGI": "> 100 µM"}
{"compound": "CCOC(=O)c1c(-c2ccc(Cl)cc2)c(C#N)c(=S)n(C2OC(COC(C)=O)C(OC(C)=O)C(OC(C)=O)C2OC(C)=O)c1C (stereo not drawn)", "TGI": "> 100 µM"}
{"compound": "C[C@]12CC[C@H]3[C@@H](CCC4=C/C(=N/OCCN5CCCCC5)CC[C@@]43C)[C@@H]1CC[C@@H]2O", "TGI": "37.3 µM"}
{"compound": "Nc1c(-c2ccccc2)c2ccc([N+](=O)[O-])cc2c(=O)n1-c1cccc(C(=O)O)c1", "TGI": "> 100 µM"}
{"compound": "COc1ccc(C2=NOC3=c4ccccc4=CSC3=C2c2ccccc2)cc1", "TGI": "> 100 µM"}
{"compound": "Cc1c(C(=O)/C=C/c2ccc3c(c2)OCO3)[n+](=O)c2ccccc2n1[O-]", "TGI": "> 100 µM"}
